Overview of reported residual activity across a group of molecules:
molecular target: Protein-tyrosine kinase 2-beta (Homo sapiens); conditions: at 1 µM
Result Type: residual activity

>>> observed_value("CC#CC(=O)Nc1cc2c(Nc3ccc(F)c(Cl)c3)ncnc2cn1")
"120%"
>>> observed_value("NC(=O)c1ccc2[nH]c(-c3ccc(Oc4ccc(Cl)cc4)cc3)nc2c1")
"100%"
>>> observed_value("O=C1NC(=O)/C(=C\\c2ccc3nccnc3c2)S1")
"124%"
>>> observed_value("O=C(Nc1cccc(Nc2nccc(Nc3cccc(C(F)(F)F)c3)n2)c1)C1CC1")
"55%"
>>> observed_value("O=C1Nc2ccc(Br)cc2/C1=C\\c1cc2c([nH]1)CCCC2")
"75%"
>>> observed_value("CCN(CC)C(=O)c1ccc(Nc2nc(OCC3CCCCC3)c3nc[nH]c3n2)cc1")
"22%"
>>> observed_value("Oc1ccc(-c2nc(-c3ccc(F)cc3)c(-c3ccncc3)[nH]2)cc1")
"111%"
>>> observed_value("Cn1cc(/C=C2\\C(=O)Nc3ccc(S(N)(=O)=O)cc32)c2ccccc21")
"22%"
>>> observed_value("O=C1NC(=O)/C(=C/c2ccc3c(c2)OC(F)(F)O3)S1")
"135%"
>>> observed_value("COc1ccc(OC)c2c(=S)c3ccccc3[nH]c12")
"79%"
>>> observed_value("O=C1Nc2cc(Br)ccc2/C1=C1/Nc2ccccc2/C1=N\\O")
"10%"
>>> observed_value("COc1cccc(-c2cc(=O)c3ccccc3o2)c1N")
"106%"
>>> observed_value("CC(=O)O/N=C1\\C(=C2\\C(=O)Nc3cc(Br)ccc32)Nc2ccccc21")
"79%"
>>> observed_value("Cc1cncc2cccc(S(=O)(=O)N3CCCN(C(=O)CN)C[C@H]3C)c12")
"122%"
>>> observed_value("N#Cc1cnc2cnc(NCc3cccnc3)cc2c1Nc1ccc(F)c(Cl)c1")
"66%"
>>> observed_value("O=C1NC(=O)c2c1c1c3ccccc3[nH]c1c1[nH]c3cc(Br)ccc3c21")
"71%"
>>> observed_value("Cc1ccc(NC2=CC(=O)c3sc(C)nc3C2=O)cc1")
"108%"
>>> observed_value("O=C1c2ccccc2-[n+]2ccc3c([nH]c4ccccc43)c21")
"101%"
>>> observed_value("Oc1c2ccccc2c2c3c(cccc13)N=N2")
"68%"
>>> observed_value("N#CCCc1ccc2c(c1)-c1[nH]c3ccc([N+](=O)[O-])cc3c1CC(=O)N2")
"19%"

----------
target: Tyrosine-protein kinase Fyn (Homo sapiens) (UniProt P06241); conditions: at 10 µM
Sequence (P06241 2-537 limits assumed): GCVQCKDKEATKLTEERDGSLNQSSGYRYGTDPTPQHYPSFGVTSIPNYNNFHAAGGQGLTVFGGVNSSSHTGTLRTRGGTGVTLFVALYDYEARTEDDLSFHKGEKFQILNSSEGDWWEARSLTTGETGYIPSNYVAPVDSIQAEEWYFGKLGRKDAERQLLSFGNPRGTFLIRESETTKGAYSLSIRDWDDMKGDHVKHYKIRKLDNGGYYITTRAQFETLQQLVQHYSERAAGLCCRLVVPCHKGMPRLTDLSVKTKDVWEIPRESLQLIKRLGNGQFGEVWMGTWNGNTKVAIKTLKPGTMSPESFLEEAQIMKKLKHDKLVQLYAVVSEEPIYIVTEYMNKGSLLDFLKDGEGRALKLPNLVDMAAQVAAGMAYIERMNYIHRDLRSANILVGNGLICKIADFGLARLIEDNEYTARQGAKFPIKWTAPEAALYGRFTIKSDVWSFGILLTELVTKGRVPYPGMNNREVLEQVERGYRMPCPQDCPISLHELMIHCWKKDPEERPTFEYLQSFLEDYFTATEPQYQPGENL
Result Type: residual activity (%)

>>> observed_value("N#CC(C#N)=C(N)/C(C#N)=C/c1ccc(O)cc1")
91
>>> observed_value("O=C1NC(=O)c2cc(Nc3ccc(F)cc3)c(Nc3ccc(F)cc3)cc21")
50
>>> observed_value("N#Cc1cnc2cnc(NCc3cccnc3)cc2c1Nc1ccc(F)c(Cl)c1")
74
>>> observed_value("COc1cc2ncnc(Nc3ccc(Oc4ccccc4)cc3)c2cc1OC")
0
>>> observed_value("O=C1NC(=O)/C(=C\\c2ccc3nccnc3c2)S1")
79
>>> observed_value("O=Nc1c(-c2c(O)[nH]c3ccccc23)[nH]c2ccccc12")
0
>>> observed_value("CNc1cc2c(Nc3cccc(Br)c3)ncnc2cn1")
16
>>> observed_value("Cc1cc2ncc(-c3ccccc3)nc2cc1C")
27
>>> observed_value("Oc1ccc(-c2nc(-c3ccc(F)cc3)c(-c3ccncc3)[nH]2)cc1")
27
>>> observed_value("Cc1cc(Nc2nc(-c3ccccc3)nc3ccccc23)n[nH]1")
-2
>>> observed_value("N#C/C(=C(\\N)Sc1ccc(N)cc1)c1ccccc1C(F)(F)F")
13
